Test: Metabolic stability in mouse liver microsomes assessed as intrinsic clearance
Assay type: ADME, Microsome
QUANTITY NAME: CLint scaled (mL/min/kg)
Give bare numbers, in mL/min/kg.

INSERT INTO measurements (compound, obs_value) VALUES
  ('Cc1nonc1C(=O)NC1CCCc2c1cnn2-c1ccc(C(C)(C)C)cc1 (configuration not stated)', 200);

Look at this compound and give its reported CLint scaled. Cc1nonc1C(=O)NC1CCCc2c1cnn2-c1ccc(OC(F)(F)F)cc1 (configuration not stated)
54

---

For each record, write down the corresponding Cmax.
Experiment: Cmax in BALB/c mouse at 50 mg/kg, po
Type: ADME, organism-based
Set-up: dose 50 mg/kg, route oral
Conditions: in vivo
One number for each entry, in µM.

INSERT INTO results (compound, unit_abbreviation, obs_value) VALUES
  ('Cc1nonc1C(=O)NC1CCCc2c1cnn2-c1ccc(C(C)(C)C)cc1 (configuration not stated)', 'µM', 1.5);

We now examine a further compound.
Look at this compound and give its reported Cmax. Cc1nonc1C(=O)NC1CCCc2c1cnn2-c1ccc(OC(F)(F)F)cc1 (configuration not stated)
9.5

---

For each record, write down the corresponding MIC.
Tested on: Mycobacterium tuberculosis
Test: Antimycobacterial activity against Mycobacterium tuberculosis H37Rv after 16 to 24 hrs by microplate alamar blue assay
Type: functional

Examples from the recorded data:
INSERT INTO results (molecule, subject_of_test, obs_value) VALUES
  ('Cc1nocc1C(=O)NC1CCCc2c1cnn2-c1ccc(OC(F)(F)F)cc1 (centres undefined)', 'Mycobacterium tuberculosis', '48.9 µM'),
  ('Cc1nonc1C(=O)NC1CCCc2c1cnn2-c1cccc(C(F)(F)F)c1 (centres undefined)', 'Mycobacterium tuberculosis', '15.4 µM'),
  ('CSCCC(=O)NC1CCCc2c1cnn2-c1ccc(OC(F)(F)F)cc1 (centres undefined)', 'Mycobacterium tuberculosis', '88.3 µM');

I have 5 molecules here; please give me MIC for each one.
1. Cc1nonc1C(=O)NC1CCCc2c1cnn2-c1ccc(C(F)(F)F)cn1 (centres undefined)
2. Cc1nonc1C(=O)Nc1cccc2c1cnn2-c1ccc(C(C)(C)C)cc1
3. Cc1cc(C)cc(-n2ncc3c2CCCC3NC(=O)c2nonc2C)c1 (centres undefined)
4. CC(C)(C)c1ccc(-n2ncc3c2CCCC3NC(=O)c2ccc3nonc3c2)cc1 (centres undefined)
5. CC(C)(C)c1ccc(-n2ncc3c2CCCC3NC(=O)c2ncccc2O)cc1 (centres undefined)

> 128 µM
> 128 µM
> 128 µM
> 128 µM
26.9 µM

Look at this molecule and give its reported MIC. Cc1nonc1C(=O)NC1CCCc2c1cnn2-c1ccc(Br)cc1 (centres undefined)
64.6 µM

---

Experiment: Metabolic stability in mouse liver microsomes assessed as hepatic clearance
Assay type: ADME, Microsome
QUANTITY NAME: CLhep predicted (mL/min/kg)
Numbers only, in mL/min/kg.

I have 2 compounds here; please give me CLhep predicted for each one.
1. Cc1nonc1C(=O)NC1CCCc2c1cnn2-c1ccc(OC(F)(F)F)cc1 (configuration not stated)
2. Cc1nonc1C(=O)NC1CCCc2c1cnn2-c1ccc(C(C)(C)C)cc1 (configuration not stated)

[23, 34]

---

System: Mycobacterium tuberculosis
Experiment: Antimycobacterial activity against Mycobacterium tuberculosis H37Rv after 16 to 24 hrs by microplate alamar blue assay
Format: functional
QUANTITY NAME: MIC

Examples from the recorded data:
INSERT INTO assay_data (compound, subject_of_test, obs_value) VALUES
  ('Cc1cc(C)cc(-n2ncc3c2CCCC3NC(=O)c2ccc3nonc3c2)c1 (stereo not drawn)', 'Mycobacterium tuberculosis', '> 128 µM'),
  ('Cc1nc2cc(C(=O)NC3CCCc4c3cnn4-c3ccc(OC(F)(F)F)cc3)ccc2s1 (stereo not drawn)', 'Mycobacterium tuberculosis', '> 128 µM');

We now examine a further compound.
Look at this compound and give its reported MIC. Cc1nonc1C(=O)NC1CCCc2c1cnn2-c1ccc(NC(C)C)cc1 (stereo not drawn)
> 128 µM

Numbers sourced from ChEMBL document CHEMBL1156793.
